target: Caspase recruitment domain-containing protein 9 (Homo sapiens) + E3 ubiquitin-protein ligase TRIM62 (Homo sapiens) (UniProt Q9H257+Q9BVG3); assay: disruptors of CARD9-TRIM62 binding, primary screen, cell lysate, HEK293FT lysates, Luminex bead ELISA (AID 1259341); details: PE fluorescence, concentration not given here;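 also: PE anti-Flag signal of Flag-CARD9 captured by myc-TRIM62 beads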
Sequence (Q9BVG3 whole entry, looked up, the tested form may be a part): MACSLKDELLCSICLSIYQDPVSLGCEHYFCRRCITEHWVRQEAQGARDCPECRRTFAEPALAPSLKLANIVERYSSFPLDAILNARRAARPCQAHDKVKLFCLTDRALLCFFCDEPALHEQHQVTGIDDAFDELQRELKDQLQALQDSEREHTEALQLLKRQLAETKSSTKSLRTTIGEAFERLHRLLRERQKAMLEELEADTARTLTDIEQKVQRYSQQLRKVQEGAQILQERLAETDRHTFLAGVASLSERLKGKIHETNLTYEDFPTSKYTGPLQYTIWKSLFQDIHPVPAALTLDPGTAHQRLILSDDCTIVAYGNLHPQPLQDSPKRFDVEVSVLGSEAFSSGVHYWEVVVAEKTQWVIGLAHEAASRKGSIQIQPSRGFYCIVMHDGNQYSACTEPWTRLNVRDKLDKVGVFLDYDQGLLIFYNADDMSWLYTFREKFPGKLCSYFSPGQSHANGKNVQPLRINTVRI
Sequence (Q9H257 whole entry, looked up, the tested form may be a part): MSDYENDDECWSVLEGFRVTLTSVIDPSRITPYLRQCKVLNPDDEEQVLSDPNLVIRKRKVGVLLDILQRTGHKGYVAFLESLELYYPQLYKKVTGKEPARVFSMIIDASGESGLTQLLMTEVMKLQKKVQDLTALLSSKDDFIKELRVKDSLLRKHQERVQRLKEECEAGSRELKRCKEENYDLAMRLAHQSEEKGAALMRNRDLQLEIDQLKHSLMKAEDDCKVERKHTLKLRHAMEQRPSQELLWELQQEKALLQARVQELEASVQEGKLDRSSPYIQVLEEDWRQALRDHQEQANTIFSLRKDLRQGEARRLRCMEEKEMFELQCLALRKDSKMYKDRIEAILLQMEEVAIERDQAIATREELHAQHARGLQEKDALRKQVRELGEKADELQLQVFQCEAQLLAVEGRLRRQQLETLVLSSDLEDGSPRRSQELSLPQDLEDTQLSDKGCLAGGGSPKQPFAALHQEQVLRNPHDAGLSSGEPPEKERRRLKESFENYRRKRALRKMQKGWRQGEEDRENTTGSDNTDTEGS
The source made the active and inactive calls.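 The calls were made as follows: active = activity change under -35% in any replicate well, with more than 20 beads read in that well; inactive = the rest.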
Give one outcome, nothing more. List: true (1) (active), false (0) (inactive)

Examples with answers:
1. CS(=O)(=O)c1ccc2ccn(O)c2c1 | false (0)
2. NC(=O)C1(N2CCCCC2)CCN(c2ncc(NC(=O)c3ccc(Cl)cc3)cc2C(=O)O)CC1 | true (1)
3. O=C(NCc1ccco1)c1ccc(S(=O)(=O)N2CCOCC2)cc1 | false (0)
4. COc1ccc(-c2nc(SCC(=O)N3CCN(c4ccccc4OC)CC3)n[nH]2)cc1 | false (0)

Could you check what this test reported for `C[C@H](CO)N1C[C@H](C)[C@@H](CN(C)CC2CCCCC2)OCCCC[C@H](C)Oc2ccc(NS(=O)(=O)c3cccs3)cc2C1=O` ? false (0)

Another compound to check: `CN(C)c1ccc(CN2C[C@H]3CC[C@@H]2CN(C(=O)c2ccncc2)C3)cn1` false (0)

---

biological target: Caspase recruitment domain-containing protein 9 (Homo sapiens) + E3 ubiquitin-protein ligase TRIM62 (Homo sapiens) (UniProt Q9H257+Q9BVG3); test: disruptors of CARD9-TRIM62 binding, primary screen, cell lysate, HEK293FT lysates, Luminex bead ELISA (AID 1259341); details: PE fluorescence, active compounds read low, concentration not given here;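 also: PE anti-Flag signal of Flag-CARD9 captured by myc-TRIM62 beads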
activity change, negative = inhibition: recorded values
Answer with a number only, understood to be in %.

1) C(=N\n1cnnc1SCc1ccccc1)/c1ccco1 | 4.53
2) O=C(Cn1cncc1-c1ccc([N+](=O)[O-])cc1)Nc1ccccc1F | 4.4
3) Cc1nc(C)c(C(=O)Nc2ncc([N+](=O)[O-])s2)o1 | -6.18
4) NC(=O)C1(N2CCCCC2)CCN(c2ncc(NC(=O)c3ccc(F)cc3)cc2C(=O)O)CC1 | -19.3
5) NC(=O)C1(N2CCCCC2)CCN(c2ccc(NC(=O)c3cccc(Cl)c3)cc2C(=O)O)CC1 | -49

Consider the compound shown here: `COCCn1c(C)cc(-c2csc(N)n2)c1C` What is its recorded activity change, negative = inhibition? 0.765

Ok, now `COC[C@]1(O)CCN(C(=O)CCN(C)S(C)(=O)=O)CC1(C)C` -0.387

Moving on to the next compound: `O=c1/c(=C/c2ccco2)sc2nc3ccccc3n12` 0.484

How about `CC1(C)Cc2ccccc2-c2nc(-c3ccccc3)oc(=O)c21` ? -0.338

What about `O=C(O)COCC(=O)NCc1ccco1` ? 1.03

Okay, and `O=C(Nc1ccc2oc(-c3ccncc3)nc2c1)c1ccc2c(c1)OCO2` ? -8.29

CCC12CCCN3CCc4c(n(c5ccccc45)C(O)(C(=O)OC)C1)C32 (configuration not stated) ? -2.25

Field entry: `O=C(O)c1ccccc1/C=N/NC(=O)c1cc(-c2ccco2)nc2ccccc12` -9.37

Proceed to `Cc1ncnc(N2CCC(c3nccn3Cc3cccnc3)CC2)c1C` -10.5

// next record Cc1ccc(N2C(=O)c3ccccc3C2C(=O)c2ccc(O)cc2O)cc1 (configuration not stated) 12.1

Repeat with `COc1cccc(NC(=O)CN(C)C(=O)c2cc3c(s2)CCC3)c1` -19.8

Cool, now `O=C(Nc1nccs1)c1cc(-c2ccccn2)nc2c(Cl)cccc12` -0.831

---

molecular target: Caspase recruitment domain-containing protein 9 (Homo sapiens) + E3 ubiquitin-protein ligase TRIM62 (Homo sapiens) (UniProt Q9H257+Q9BVG3); test: disruptors of CARD9-TRIM62 binding, primary screen, cell lysate, HEK293FT lysates, Luminex bead ELISA (AID 1259341); details: PE fluorescence, active compounds read low, concentration not given here;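 also: PE anti-Flag signal of Flag-CARD9 captured by myc-TRIM62 beads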
activity change, negative = inhibition values by entry
The reply should contain only the number, in %.

# example entries with known answers
1) O=C(CN1CCN(c2ccccc2O)CC1)NC(=O)NC1CCCC1 | 2.28
2) Cn1cccc1CNCCCSc1ncccn1 | 1.41
3) CN1C(=O)C(c2ccccc2[N+](=O)[O-])C(=O)c2ccccc21 (configuration not stated) | 3.98
4) COc1ccc(S(=O)(=O)Nc2ccc3c(c2)C(=O)N([C@H](C)CO)C[C@H](C)[C@@H](CN(C)C(=O)C2CCCCC2)OCCCC[C@H](C)O3)cc1 | -4.07
5) O=c1oc(-c2ccccc2)nc2sc3c(c12)CCC3 | 0.684
6) Nc1ccc2ncccc2c1N | 1.19

Bench note: what activity change, negative = inhibition did `CC(=O)c1cccc(OCC(=O)N(C)CC(=O)NCc2ccco2)c1` show? -22.5

How about this molecule: `O=C(COC(=O)c1ccc(S(=O)(=O)NCc2ccco2)cc1)Nc1ccc(Cl)cn1` -0.897

Moving on to the next molecule: `Cc1ccc(C(=O)Nc2ccc(N3CCC(C(N)=O)(N4CCCCC4)CC3)c(C(=O)O)c2)cc1` -42.4

// next record `O=C(Cc1ccc(S(=O)(=O)N2CCOCC2)s1)Nc1nc2c(s1)CCCC2` -0.777

// next record `OCc1ccc(O)c2ncccc12` -35

Query `NC(=O)C1(N2CCCCC2)CCN(c2ncc(NC(=O)c3ccccc3F)cc2C(=O)O)CC1` next -10.2

Repeat with `O=C(Nc1ccc2c(c1)nc1n2CCN(C2CCCCC2)C1)c1ccco1` -2.69

How about `N#CNc1nc(O)cc(=O)[nH]1` ? -9.24

Same read-out for `Cc1ccc(-c2nc(C)sc2CC(=O)NCc2ccco2)cc1` ? -1.34

Now try `Cc1cc(C)c2c(N)c(C(=O)Nc3cccc4ccccc34)sc2n1` . -1.34

Now the molecule `O=C(Nc1nc(-c2ccco2)c(-c2ccco2)s1)C1CCC1` -9.96

Follow-up entry: `O=C(NCCc1ccco1)c1ccc(OCc2cn3ccccc3n2)cc1` 0.111

Moving on to the next molecule: `O=[N+]([O-])c1ccc2cc[nH]c2c1` 7.88

Moving on to the next molecule: O=C1CC(c2ccco2)Cc2nc(N3CCc4ccccc4C3)ncc21 (configuration not stated) -4.59

---

biological target: Caspase recruitment domain-containing protein 9 (Homo sapiens) + E3 ubiquitin-protein ligase TRIM62 (Homo sapiens) (UniProt Q9H257+Q9BVG3); test: disruptors of CARD9-TRIM62 binding, primary screen, cell lysate, HEK293FT lysates, Luminex bead ELISA (AID 1259341); details: PE fluorescence, active compounds read low, concentration not given here;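 also: PE anti-Flag signal of Flag-CARD9 captured by myc-TRIM62 beads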
Calls of active or inactive are those of the source.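 Rule for the calls: active = activity change under -35% in any replicate well, with more than 20 beads read in that well; inactive = the rest.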
Item-by-item account of activity change, negative = inhibition

// solved cases for activity change, negative = inhibition follow
1) NC(=O)C1(N2CCCCC2)CCN(c2ncc(NC(=O)c3ccccc3)cc2C(=O)O)CC1 | -57.3% (active)
2) CCOC(=O)c1ccc(-c2ccc(C3CC(=O)Nc4cc5c(cc43)OCCO5)o2)cc1 (configuration not stated) | -0.752% (inactive)
3) C[C@H](CO)N1C[C@H](C)[C@@H](CN(C)CC2CCCCC2)OCCCC[C@H](C)Oc2ccc(NS(C)(=O)=O)cc2C1=O | -25.8% (inactive)

The record that follows has no activity change, negative = inhibition shown yet.
Look at this compound and give its reported activity change, negative = inhibition. COCCC(=O)N1CCCC2(CCN(CCN3CCCC3)C2=O)C1 (configuration not stated) -7.49% (inactive)

---

target: Caspase recruitment domain-containing protein 9 (Homo sapiens) + E3 ubiquitin-protein ligase TRIM62 (Homo sapiens) (UniProt Q9H257+Q9BVG3); assay: disruptors of CARD9-TRIM62 binding, primary screen, cell lysate, HEK293FT lysates, Luminex bead ELISA (AID 1259341); details: PE fluorescence, active compounds read low, concentration not given here;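 also: PE anti-Flag signal of Flag-CARD9 captured by myc-TRIM62 beads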
Consider the following molecules and their measured activity change, negative = inhibition readings.
I only need the number, in %, no unit after it.

# activity change, negative = inhibition lookup, item `O=[N+]([O-])c1c(NCCCO)cc(SCc2ccco2)c2nonc12` 15.3

Check `C[C@H](CO)N1C[C@H](C)[C@@H](CN(C)CC2CCCCC2)OCCCC[C@H](C)Oc2ccc(NS(=O)(=O)c3ccc(Cl)cc3)cc2C1=O` too. 8.08

---

molecular target: Caspase recruitment domain-containing protein 9 (Homo sapiens) + E3 ubiquitin-protein ligase TRIM62 (Homo sapiens) (UniProt Q9H257+Q9BVG3); assay: disruptors of CARD9-TRIM62 binding, primary screen, cell lysate, HEK293FT lysates, Luminex bead ELISA (AID 1259341); conditions: PE fluorescence, concentration not given here;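 also: PE anti-Flag signal of Flag-CARD9 captured by myc-TRIM62 beads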
Calls of active or inactive are those of the source.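 Rule for the calls: active = activity change under -35% in any replicate well, with more than 20 beads read in that well; inactive = the rest.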
Just give me one of these, please: y = active, n = inactive

These recorded examples may help you get a feel for the data.
1) NC(=O)C1(N2CCCCC2)CCN(c2ncc(NC(=O)c3cccc(Cl)c3)cc2C(=O)O)CC1 | y
2) C[C@H](CO)N1C[C@H](C)[C@@H](CN(C)C(=O)C2CCCCC2)OCCCC[C@H](C)Oc2ccc(NS(=O)(=O)c3ccccc3)cc2C1=O | n

Recorded test call requested for `Cc1oc(CSCc2cc(C(=O)O)c(C)o2)cc1C(=O)O` n

And then `CC(=O)c1ccc(NC(=O)c2noc3c2CCC3)cc1` , what is it? n

Check `O=C(NCc1ccco1)c1c2c(nc3ccccc13)CCC2` too. n

Lookup CC(C(=O)N1CCCC1)N1CCN(c2ccccc2O)CC1 (stereo not drawn) n

Repeat with `COc1ccc(S(=O)(=O)N2CCOCC2)cc1NC(=O)c1cccc(-n2cccc2)c1` n

And `CC(=O)Nc1ccc2nc3c(=O)n(C)c(=O)n(C)c3nc2c1` ? n

Also check `Cc1nc2ccccc2nc1CSCc1ccco1` n

Same read-out for `Cc1scc(C(=O)NCc2ccco2)c1-c1ccccc1` ? n
